B1: ESR2 (parent)
chain: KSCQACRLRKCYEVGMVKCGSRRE

- Variants of: B1
- ASSAY_INFO: protein stability index of a GFP-peptide fusion (GPS, HEK-293T) (PSI 1-6); higher = more stable;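 note: lentivirally expressed fusions sorted by FACS into six bins by GFP to DsRed ratio, PSI derived from sequencing read proportions per bin multiplied by bin number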
- EXPERIMENTAL_CONDITIONS: c terminus: a fixed tail appended
Decision: protein stability index >= 2 yields y, all other cases yield n.

{"CHANGES": "R9W", "ASSIGNED_LABEL": "n"}

Answer whether protein stability index of C6V is greater than or equal to 2. y

Answer whether protein stability index of S21W is greater than or equal to 2. n

Answer whether protein stability index of R23C is greater than or equal to 2. y

Answer whether protein stability index of V14M is greater than or equal to 2. n

Answer whether protein stability index of V17F is greater than or equal to 2. n

Answer whether protein stability index of K10R is greater than or equal to 2. n

Answer whether protein stability index of S21R is greater than or equal to 2. y

Answer whether protein stability index of S2A is greater than or equal to 2. n

Answer whether protein stability index of R22I is greater than or equal to 2. n

Answer whether protein stability index of S2P is greater than or equal to 2. n

Answer whether protein stability index of V14Y is greater than or equal to 2. n

Answer whether protein stability index of V14L is greater than or equal to 2. n

Answer whether protein stability index of E13D is greater than or equal to 2. n

Answer whether protein stability index of R7D is greater than or equal to 2. y

Answer whether protein stability index of G15E is greater than or equal to 2. n

Answer whether protein stability index of C19F is greater than or equal to 2. n

Answer whether protein stability index of G15S is greater than or equal to 2. n

Answer whether protein stability index of M16L is greater than or equal to 2. y

Answer whether protein stability index of C6I is greater than or equal to 2. y
